Reported TGI values follow for various molecules
System: NCI/ADR-RES ovarian
Assay: NCI tumour cell line growth inhibition, 48 h
assayReadout: TGI

Cn1c([N+](=O)[O-])cnc1CN1CCN(CCO)CC1    > 100 µM
COc1ccc(-c2cnoc2-c2ccc(OC)cc2O)cc1    19.1 µM
Fc1cc(-c2cc(-c3ccccc3)n[nH]2)c(Cl)cc1Cl    > 100 µM
O=C1C=CC(=O)N1n1c(Cc2ccccc2)n[nH]c1=O    > 100 µM
C=CC(O)C#Cc1cnc(OC)nc1OC (stereo not given)    > 100 µM
CCCn1c2c(c3ccccc3c1=O)C(=O)c1cc3c(cc1-2)OCO3    > 100 µM
O=C(Nc1cccc(-n2cc(-c3ccncc3)c(-c3ccc(Cl)c(O)c3)n2)c1)Nc1cccc(C(F)(F)F)c1    > 32.5 µM
Cc1cc(O)c(C=NC(=S)C(N)=S)c(=O)o1    > 100 µM
O=[N+]([O-])c1cc([N+](=O)[O-])c(N2CCCC2)cc1NN=C(c1ccc(O)cc1)c1ccc(O)cc1    37.9 µM
COc1ccc2c(c1)CC[C@@H]1[C@@H]2CC[C@]2(C)C(c3ccsc3)=C(/C=C/C(=O)c3ccccc3)C[C@@H]12    > 100 µM

###

Tested on: NCI-H226 lung
Test: NCI tumour cell line growth inhibition, 48 h; in the data active = GI50 below about 0.43 µM; inactive = the rest
Classes used: class 1 for active, class 0 for inactive

Cn1cc(C2=C(c3cn(C)c4cc(C(=O)O)ccc34)C(=O)NC2=O)c2ccccc21    class 0
CC(C)(C)CC(C)(C)c1ccc(OCCSC(=N)N)cc1    class 0
O=[N+]([O-])c1cccc2nc3ccccc3c(NCCO)c12    class 1
COc1cc(-c2cc(/C=C3\C(=O)Nc4ccc(Cl)cc43)[nH]n2)cc(OC)c1OC    class 0
COC(=O)c1c2c(c(C)[n+]([O-])c1C)C(=O)C(NCc1cccc(Cl)c1)=CC2=O    class 0
Nc1nc2cc(-c3ccc4ncc(C(=O)N5CCOCC5)n4c3)ccc2o1    class 0
O[C@H]1C=C2[C@H](C[C@@H]1O)CN1C[C@H]2c2cc3c(cc21)OCO3    class 0
O=C1c2[nH]cc(CN3CCN(CCO)CC3)c2C(=O)c2c1c(O)c1ccccc1c2O    class 0
NS(=O)(=O)c1ccc(Nc2ncc(-c3ccccc3)o2)cc1    class 0
O=CC(NC(=O)N(CCCl)N=O)C(O)C(O)C(O)CO (stereo not given)    class 0

###

Tested on: MOLT-4 leukemia
Test: NCI tumour cell line growth inhibition, 48 h
Reported log10 TGI values follow for various compounds
assayReadout: log10 TGI (log10 of the value in µM)

CCCCN(CCCC)CC(O)c1ccc(OCc2ccccc2)c2ccccc12 (stereo not drawn)    1.22
CC(C)OP(=O)(CCCCCCCCC/C=C/c1ccc2c(c1)OCCOCCOCCOCCO2)OC(C)C    1.03
Fc1cc(-c2cc(-c3ccccc3)n[nH]2)c(Cl)cc1Cl    1.76
O=C(C(Br)C(Br)c1ccccc1)C(Br)C(Br)c1ccccc1 (stereo not drawn)    0.15
Clc1ccc(C(c2ccc(Cl)cc2)c2cncnc2)cc1    1.83
CCCCSSC(=S)N(CC)CC    1.74
CCSc1ccc2c(c1)N(CCCN1CCN(C)CC1)c1ccccc1S2    0.81
O=C(NC1CCCCC1)NS(=O)(=O)c1ccc(-n2nc3c(c2-c2cccs2)Cc2ccccc2-3)cc1    1.58
Cc1ccc(-c2c(C#N)c(N)[nH]c(=S)c2C#N)cc1    1.89
C=CCOC1=CC(=O)c2ccccc2C1=O    1.61
CN1CN(c2ccccc2)C2(CCN(Cc3nc4ccccc4s3)CC2)C1=O    1.54
